# Tested on: A549
# assay procedure: Cytotoxicity against human A549 cells assessed as cell growth inhibition incubated for 72 hrs by CCK8 assay
# Type: functional, cell-based
# measurement conditions: A549, 72 h
outcome measure: pIC50
pIC50 here is simply -log10 of the concentration when that concentration is written in mol/L.

compound=C[C@H]1O[C@@H]2C[C@@H](O)[C@@]1(O)C1=C2C(=O)C(C(N)=O)=C(N)C1=O outcome_measure=pIC50 test_value=5.85
compound=C[C@H]1O[C@@H]2C[C@@H](O)[C@@]1(O)c1c2c(O)c(C(N)=O)c2nc([C@@H](O)CO)oc12 outcome_measure=pIC50 test_value=5.19
compound=C[C@H]1O[C@@H]2C[C@@H](O)[C@@]1(O)c1c2c(O)c(C(N)=O)c2ncoc12 outcome_measure=pIC50 test_value=5.14

Data request, read-out pIC50, for "NC(=O)C1=C(N)C(=O)c2c(O)cccc2C1=O"
5.08

Data request, read-out pIC50, for "C[C@H]1O[C@@H]2C[C@@H](O)[C@@]1(O)c1c2c(O)c(C(N)=O)c2nc([C@@H](O)[C@@H](O)CO)oc12"
5.32

Data request, read-out pIC50, for CC(O)c1cccc2c1C(=O)C(N)=C(C(N)=O)C2=O (configuration not stated)
6.05

Data request, read-out pIC50, for "CC(=O)c1cccc2c1C(=O)C(N)=C(C(N)=O)C2=O"
4.87

---

# Test system: 4T1
# assay procedure: Cytotoxicity against mouse 4T1 cells assessed as cell growth inhibition incubated for 72 hrs by CCK8 assay
# Assay type: functional, cell-based
# measurement conditions: 4T1, 72 h
pIC50 by entry:
pIC50 here is simply -log10 of the concentration when that concentration is written in mol/L.

compound=C[C@H]1O[C@@H]2C[C@@H](O)[C@@]1(O)c1c2c(O)c(C(N)=O)c2ncoc12 test_value=5.24
compound=C[C@H]1O[C@@H]2C[C@@H](O)[C@@]1(O)C1=C2C(=O)C(C(N)=O)=C(N)C1=O test_value=6.05
compound=C[C@H]1O[C@@H]2C[C@@H](O)[C@@]1(O)c1c2c(O)c(C(N)=O)c2nc([C@@H](O)[C@@H](O)CO)oc12 test_value=5.37

Data request, read-out pIC50, for "NC(=O)C1=C(N)C(=O)c2c(O)cccc2C1=O"
4.83

Data request, read-out pIC50, for "COc1cccc2c1C(=O)c1c(O)c3c(c(O)c1C2=O)C[C@@](O)(C(=O)CO)C[C@@H]3O[C@H]1C[C@H](N)[C@H](O)[C@H](C)O1"
7.05

---

# System: 4T1
# assay procedure: Cytotoxicity against mouse 4T1 cells assessed as cell growth inhibition incubated for 72 hrs by CCK8 assay
# Type: functional, cell-based
# measurement conditions: 4T1, 72 h
outcome measure: IC50 (µM)
Report the figure in µM without appending any unit label.

Example results:
compound=CC(=O)c1cccc2c1C(=O)C(N)=C(C(N)=O)C2=O test_value=7.6
compound=C[C@H]1O[C@@H]2C[C@@H](O)[C@@]1(O)c1c2c(O)c(C(N)=O)c2nc([C@@H](O)CO)oc12 test_value=4.8

Now for the compound whose IC50 we want.
Data request, read-out IC50, for CC(O)c1cccc2c1C(=O)C(N)=C(C(N)=O)C2=O (stereo not drawn)
1.3
